// pIC50 lookup, one value per entry
- ASSAY SYSTEM: CDK2/Cyclin E complex (Homo sapiens, UniProt P24941)
- TEST DETAILS: CDK2/Cyclin E fluorescence-based microfluidic mobility shift assay (CDK2 Biochemical Caliper Assay)
- CONDITION DESCRIPTION: read-out: Biochemical CDK2/CyclinE Caliper IC50
pIC50: −log10 of the molar value.

Observe how each entry below is paired with its result.
MOLECULE: COCc1cc(C(=O)Nc2cc([C@H]3CC[C@@H](c4cnc(C)cn4)C3)[nH]n2)n(C)n1 (single isomer, unassigned)
OBSERVED: 4.00 to 6.00
--
MOLECULE: CC(C)NC(=O)O[C@H]1CO[C@@H](c2cc(Nc3nccc4nccn34)n[nH]2)C1
OBSERVED: ≥ 7.00
--
MOLECULE: c1cnc(Nc2cc(C34CCC(CC3)C4)[nH]n2)nc1
OBSERVED: 4.00 to 6.00

# evaluate next
[in] Return reported pIC50. Input molecule: COCc1cc(C(=O)Nc2cc([C@@H]3CC[C@H](Oc4cnccc4C4CC4)C3)[nH]n2)n(C)n1 (single isomer, unassigned)
[out] 6.60 to 7.00

---

// IC50 lookup, one value per entry
- ASSAY SYSTEM: CDK2/Cyclin E complex (Homo sapiens, UniProt P24941)
- TEST DETAILS: CDK2/Cyclin E fluorescence-based microfluidic mobility shift assay (CDK2 Biochemical Caliper Assay)
- CONDITION DESCRIPTION: read-out: Biochemical CDK2/CyclinE Caliper IC50

Observe how each entry below is paired with its result.
COMPOUND: Cc1c(F)c(Nc2cc(C3CCCC3)[nH]n2)nc2ccccc12
ASSAY SYSTEM: CDK2/Cyclin E complex (Homo sapiens, UniProt P24941)
IC50: 1000 to 100000 nM
--
COMPOUND: Cc1cc(CC(=O)Nc2cc([C@@H]3CC[C@H](Oc4cncnc4)C3)[nH]n2)on1 (single isomer, unassigned)
ASSAY SYSTEM: CDK2/Cyclin E complex (Homo sapiens, UniProt P24941)
IC50: 250 to 1000 nM
--
COMPOUND: Cc1cnn(-c2ccnc(Nc3cc([C@@H]4CC[C@H](OC(=O)NC(C)C)C4)[nH]n3)c2)c1 (single isomer, unassigned)
ASSAY SYSTEM: CDK2/Cyclin E complex (Homo sapiens, UniProt P24941)
IC50: 100 to 250 nM
--
COMPOUND: COCc1cc(C(=O)Nc2cc([C@H]3C[C@@H](COc4cn[nH]c4C4(C)CC4)C3)[nH]n2)n(C)n1
ASSAY SYSTEM: CDK2/Cyclin E complex (Homo sapiens, UniProt P24941)
IC50: 250 to 1000 nM
--
COMPOUND: Cc1cc(CC(=O)Nc2cc([C@@H]3CC[C@H](OC(=O)[C@H](N)C(C)C)C3)[nH]n2)on1 (single isomer, unassigned)
ASSAY SYSTEM: CDK2/Cyclin E complex (Homo sapiens, UniProt P24941)
IC50: 100 to 250 nM

# evaluate next
[in] Return reported IC50. Input compound: COCc1cc(C(=O)Nc2cc([C@@H]3CC[C@H](Cc4ncc(C)s4)C3)[nH]n2)n(C)n1 (single isomer, unassigned)
[out] 250 to 1000 nM

---

- ASSAY SYSTEM: CDK2/Cyclin E complex (Homo sapiens)
- TEST DETAILS: CDK2/Cyclin E fluorescence-based microfluidic mobility shift assay (CDK2 Biochemical Caliper Assay)
- CONDITION DESCRIPTION: read-out: Biochemical CDK2/CyclinE Caliper IC50
// IC50 lookup, one value per entry

COMPOUND: Cc1cc(CC(=O)Nc2cc([C@H]3CC[C@@H](NC(=O)c4ccccc4)C3)[nH]n2)on1 (single isomer, unassigned) [Example 131]
ASSAY SYSTEM: CDK2/Cyclin E complex (Homo sapiens)
OBSERVED: 1000 to 100000 nM

[in] Return reported IC50. Input compound: C[C@H](NC(=O)O[C@H]1CO[C@@H](c2cc(NC(=O)c3cc(COC(F)F)nn3C)n[nH]2)C1)C1CC1 [Example 772]
[out] ≤ 100 nM

[in] Return reported IC50. Input compound: COCc1cc(C(=O)Nc2cc([C@H]3C[C@@H](Oc4nnccc4C(C)C)CO3)[nH]n2)n(C)n1 [Example 458]
[out] ≤ 100 nM

[in] Return reported IC50. Input compound: COc1cnc2ncnc(Nc3cc(C4CCCC4)[nH]n3)c2c1 [Example 865]
[out] 1000 to 100000 nM

Entry source: patent US20240190855A1
